Reported IC50 values for the following compounds.
- Test system: Bacillus subtilis
- test.description: microbe, parasite or virus in culture
- Type: cell-based
- recorded.conditions: Bacillus subtilis, read-out: IC50, Bacillus subtilis
Kindly provide the numeric value in µM only, without the unit symbol.

Fc1ccc([B-]2(c3ccc(F)cc3)[NH2+]CCO2)cc1
34
Fc1ccc([B-]2(c3ccc(F)cc3)Oc3cccc4ccc[n+]2c34)cc1
14
Clc1ccc([B-]2(c3ccc(Cl)cc3)Oc3cccc4ccc[n+]2c34)cc1
7

// switching to the query compound
// sample Clc1ccc([B-]2(c3ccc(Cl)cc3)[NH2+]CCO2)cc1 , its IC50 was 32
